The measured values listed here are drawn from ChEMBL document CHEMBL4433205.

target: Delta-type opioid receptor (Rattus norvegicus); experiment: Displacement of [3H]diprenorphine from rat delta opioid receptor expressed in rat C6 cell membranes measured after 1 hr by liquid scintillation counting method
Sequence (P33533 whole entry): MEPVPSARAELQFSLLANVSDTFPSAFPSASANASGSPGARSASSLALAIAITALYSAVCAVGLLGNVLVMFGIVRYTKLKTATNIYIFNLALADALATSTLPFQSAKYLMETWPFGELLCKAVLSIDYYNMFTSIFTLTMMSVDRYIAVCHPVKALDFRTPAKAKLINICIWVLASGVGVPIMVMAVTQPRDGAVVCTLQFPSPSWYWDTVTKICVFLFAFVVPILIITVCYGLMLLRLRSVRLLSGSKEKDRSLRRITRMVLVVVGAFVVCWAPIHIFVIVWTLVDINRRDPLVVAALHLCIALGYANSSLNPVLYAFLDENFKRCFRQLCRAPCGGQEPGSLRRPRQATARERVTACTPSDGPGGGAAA
pKi: −log10 of the molar value.
Collected pKi values appear next to each entry.
assay endpoint: pKi

smi=CC(=O)N1CC[C@@H](NC(=O)[C@@H](N)Cc2c(C)cc(O)cc2C)c2cc(Cc3cc4ccccc4o3)ccc21 assay_endpoint=pKi reported_measurement=9.14
smi=Cc1cc(O)cc(C)c1C[C@H](N)C(=O)N[C@@H]1CCN(C(=O)c2ccccc2)c2ccc(Cc3cnc4ccccc4c3)cc21.O=C(O)C(F)(F)F assay_endpoint=pKi reported_measurement=9.13
smi=Cc1cc(O)cc(C)c1C[C@H](N)C(=O)N[C@@H]1CCN(S(C)(=O)=O)c2ccc(Cc3ccc4ccccc4c3)cc21.O=C(O)C(F)(F)F assay_endpoint=pKi reported_measurement=9.02
smi=Cc1cc(O)cc(C)c1C[C@H](N)C(=O)N[C@@H]1CCN(C(=O)c2ccccc2)c2ccc(Cc3cc4ccccc4o3)cc21.O=C(O)C(F)(F)F assay_endpoint=pKi reported_measurement=9.19
smi=Cc1cc(O)cc(C)c1C[C@H](N)C(=O)N[C@@H]1CCN(C(=O)c2ccccc2)c2ccc(Cc3ccc4ccccc4c3)cc21.O=C(O)C(F)(F)F assay_endpoint=pKi reported_measurement=9.34
smi=Cc1cc(O)cc(C)c1C[C@H](N)C(=O)N[C@@H]1CCN(S(C)(=O)=O)c2ccc(Cc3cnc4ccccc4c3)cc21.O=C(O)C(F)(F)F assay_endpoint=pKi reported_measurement=9.19
smi=Cc1cc(O)cc(C)c1C[C@H](N)C(=O)N[C@@H]1CCN(S(C)(=O)=O)c2ccc(Cc3ccc4c(c3)OCCO4)cc21.O=C(O)C(F)(F)F assay_endpoint=pKi reported_measurement=8.82
